- ASSAY OVERVIEW: pKa by potentiometric pH-metric titration (Sirius T3)
- Format: physicochemical
- RUN CONDITIONS: 0.15 M KCl solution (ISA water), 25±1° C., read-out: Acid pKa
Ends that are not written are not given here.
METRIC: pKa

SSSHPIFHRGEFSV [NGF1-14, SSSHPIFHRGEFSV]; 4.42

----------
- ASSAY OVERVIEW: pKa by potentiometric pH-metric titration (Sirius T3)
- Format: physicochemical
- RUN CONDITIONS: 0.15 M KCl solution (ISA water), 25±1° C., read-out: Base pKa
Ends that are not written are not given here.
METRIC: pKa

SSSHPIFHRGEFSV [NGF1-14, SSSHPIFHRGEFSV]; 7.41
